Would you kindly list total protein half-life in vivo for each of these sequences?
- protocol summary: total protein half-life in vivo (active degradation + dilution); higher = more stable protein
- assay conditions: E. coli NCM3722 delta-lon; growth: N-lim chemostat; doubling time 6 h
Answers are plain numbers, in h.

Some entries whose results are on file:
[[record]]
seq_string = "MQDRNFDDIAEKFSRNIYGTTKGQLRQAILWQDLDRVLAEMGPQKLRVLDAGGGEGQTAIKMAERGHQVILCDLSAQMIDRAKQAAEAKGVSDNMQFIHCAAQDVASHLETPVDLILFHAVLEWVADPRSVLQTLWSVLRPGGVLSLMFYNAHGLLMHNMVAGNFDYVQAGMPKKKKRTLSPDYPRDPAQVYLWLEEAGWQIMGKTGVRVFHDYLREKHQQRDCYEALLELETRYCRQEPYITLGRYIHVTARKPQSKDKV"
property = "total protein half-life in vivo"
reported = 4.57

[[record]]
seq_string = "MTIKNVICDIDGVLMHDNVAVPGAAEFLHGIMDKGLPLVLLTNYPSQTGQDLANRFATAGVDVPDSVFYTSAMATADFLRRQEGKKAYVVGEGALIHELYKAGFTITDVNPDFVIVGETRSYNWDMMHKAAYFVANGARFIATNPDTHGRGFYPACGALCAGIEKISGRKPFYVGKPSPWIIRAALNKMQAHSEETVIVGDNLRTDILAGFQAGLETILVLSGVSSLDDIDSMPFRPSWIYPSVAEIDVI [P0AF24]"
property = "total protein half-life in vivo"
reported = 5.88


Turning now to a further sequence:
Prompt: Quick one: total protein half-life in vivo for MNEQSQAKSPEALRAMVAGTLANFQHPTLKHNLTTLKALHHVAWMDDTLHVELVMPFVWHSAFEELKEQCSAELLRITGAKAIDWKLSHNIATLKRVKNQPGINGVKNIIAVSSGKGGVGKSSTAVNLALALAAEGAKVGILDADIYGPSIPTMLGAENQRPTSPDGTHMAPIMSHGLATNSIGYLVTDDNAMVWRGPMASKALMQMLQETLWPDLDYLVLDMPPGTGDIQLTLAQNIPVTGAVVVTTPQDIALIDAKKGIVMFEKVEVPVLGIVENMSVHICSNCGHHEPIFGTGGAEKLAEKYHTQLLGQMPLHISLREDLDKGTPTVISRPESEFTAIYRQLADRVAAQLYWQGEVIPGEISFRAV [P0AF08] ?
Completion: 4.15

---

For each entry below, report its total protein half-life in vivo value.
- protocol summary: total protein half-life in vivo (active degradation + dilution); higher = more stable protein
- assay conditions: E. coli NCM3722 delta-clpP; growth: N-lim chemostat; doubling time 6 h
One number for each entry, in h.

Previously resolved entries follow.
[[record]]
seq_string = "MKKLVLSLSLVLAFSSATAAFAAIPQNIRIGTDPTYAPFESKNSQGELVGFDIDLAKELCKRINTQCTFVENPLDALIPSLKAKKIDAIMSSLSITEKRQQEIAFTDKLYAADSRLVVAKNSDIQPTVESLKGKRVGVLQGTTQETFGNEHWAPKGIEIVSYQGQDNIYSDLTAGRIDAAFQDEVAASEGFLKQPVGKDYKFGGPSVKDEKLFGVGTGMGLRKEDNELREALNKAFAEMRADGTYEKLAKKYFDFDVYGG [P0AEU0]"
property = "total protein half-life in vivo"
reported = 5.99

[[record]]
seq_string = "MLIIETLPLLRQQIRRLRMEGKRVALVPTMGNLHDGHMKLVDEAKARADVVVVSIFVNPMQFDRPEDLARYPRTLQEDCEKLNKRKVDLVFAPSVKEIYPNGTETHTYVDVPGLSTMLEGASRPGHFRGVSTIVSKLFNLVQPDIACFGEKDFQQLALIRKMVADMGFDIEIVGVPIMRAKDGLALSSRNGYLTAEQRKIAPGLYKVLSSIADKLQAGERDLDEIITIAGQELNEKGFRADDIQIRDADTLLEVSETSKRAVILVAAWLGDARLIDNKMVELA"
property = "total protein half-life in vivo"
reported = 5.17


Attention now shifts to the item below.
Prompt: State the recorded total protein half-life in vivo for this entry: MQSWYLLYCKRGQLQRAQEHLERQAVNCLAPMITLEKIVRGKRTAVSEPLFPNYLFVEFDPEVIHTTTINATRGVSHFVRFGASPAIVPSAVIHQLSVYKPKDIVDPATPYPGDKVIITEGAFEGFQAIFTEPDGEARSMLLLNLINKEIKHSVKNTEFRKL [P0AFW0]
Completion: 3.41

---

- protocol summary: total protein half-life in vivo (active degradation + dilution); higher = more stable protein
- assay conditions: E. coli NCM3722 delta-clpP delta-lon delta-hslV; growth: N-lim chemostat; doubling time 6 h
property: total protein half-life in vivo

[[record]]
seq_string = "MDLIYFLIDFILHIDVHLAELVAEYGVWVYAILFLILFCETGLVVTPFLPGDSLLFVAGALASLETNDLNVHMMVVLMLIAAIVGDAVNYTIGRLFGEKLFSNPNSKIFRRSYLDKTHQFYEKHGGKTIILARFVPIVRTFAPFVAGMGHMSYRHFAAYNVIGALLWVLLFTYAGYFFGTIPMVQDNLKLLIVGIIVVSILPGVIEIIRHKRAAARAAK [P0ABP6]"
property = "total protein half-life in vivo"
reported = "3.68 h"

[[record]]
seq_string = "MKPTTLLLIFTFFAMPGIVYAESPFSSLQSAKEKTTVLQDLRKICTPQASLSDEAWEKLMLSDENNKQHIREAIVAMERNNQSNYWEALGKVECPDM [Q2M7X4]"
property = "total protein half-life in vivo"
reported = "4.53 h"

[[record]]
seq_string = "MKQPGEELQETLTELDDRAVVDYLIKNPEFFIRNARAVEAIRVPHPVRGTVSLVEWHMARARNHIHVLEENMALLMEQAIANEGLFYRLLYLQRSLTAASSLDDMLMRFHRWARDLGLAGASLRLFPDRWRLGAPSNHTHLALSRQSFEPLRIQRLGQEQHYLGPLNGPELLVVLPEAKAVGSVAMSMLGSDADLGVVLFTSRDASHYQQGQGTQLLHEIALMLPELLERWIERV"
property = "total protein half-life in vivo"
reported = "5.46 h"

[[record]]
seq_string = "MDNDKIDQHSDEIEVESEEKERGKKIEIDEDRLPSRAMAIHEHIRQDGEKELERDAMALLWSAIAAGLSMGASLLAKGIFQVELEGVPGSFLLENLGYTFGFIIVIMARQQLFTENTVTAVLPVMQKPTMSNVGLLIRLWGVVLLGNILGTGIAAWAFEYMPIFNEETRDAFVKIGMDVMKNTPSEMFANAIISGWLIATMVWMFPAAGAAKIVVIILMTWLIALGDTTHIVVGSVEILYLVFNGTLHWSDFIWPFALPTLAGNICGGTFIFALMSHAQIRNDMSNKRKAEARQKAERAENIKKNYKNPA"
property = "total protein half-life in vivo"
reported = "6.19 h"

[[record]]
seq_string = "MTKQPPIAKADLQKTQGNRAPAAVKNSDVISFINQPSMKEQLAAALPRHMTAERMIRIATTEIRKVPALGNCDTMSFVSAIVQCSQLGLEPGSALGHAYLLPFGNKNEKSGKKNVQLIIGYRGMIDLARRSGQIASLSARVVREGDEFSFEFGLDEKLIHRPGENEDAPVTHVYAVARLKDGGTQFEVMTRKQIELVRSLSKAGNNGPWVTHWEEMAKKTAIRRLFKYLPVSIEIQRAVSMDEKEPLTIDPADSSVLTGEYSVIDNSEE"
property = "total protein half-life in vivo"
reported = "5.15 h"


Below are 4 sequences. Give each one its total protein half-life in vivo.
1. MKKYLALALIAPLLISCSTTKKGDTYNEAWVKDTNGFDILMGQFAHNIENIWGFKEVVIAGPKDYVKYTDQYQTRSHINFDDGTITIETIAGTEPAAHLRRAIIKTLLMGDDPSSVDLYSDVDDITISKEPFLYGQVVDNTGQPIRWEGRASNFADYLLKNRLKSRSNGLRIIYSVTINMVPNHLDKRAHKYLGMVRQASRKYGVDESLILAIMQTESSFNPYAVSRSDALGLMQVVQHTAGKDVFRSQGKSGTPSRSFLFDPASNIDTGTAYLAMLNNVYLGGIDNPTSRRYAVITAYNGGAGSVLRVFSNDKIQAANIINTMTPGDVYQTLTTRHPSAESRRYLYKVNTAQKSYRRR [P0C066]
2. MNIKIAALTLAIASGISAQWAIAADMPASPAPTIPVKQYVTQVNADNSVTFRYFAPGAKNVSVVVGVPVPDNIHPMTKDEAGVWSWRTPILKGNLYEYFFNVDGVRSIDTGTAMTNPQRQVNSSMILVPGSYLDTRSVAHGDLIAITYHSNALQSERQMYVWTPPGYTGMGEPLPVLYFYHGFGDTGRSAIDQGRIPQIMDNLLAEGKIKPMLVVIPDTETDAKGIIPEDFVPQERRKVFYPLNAKAADRELMNDIIPLISKRFNVRKDADGRALAGLSQGGYQALVSGMNHLESFGWLATFSGVTTTTVPDEGVAARLNDPAAINQQLRNFTVVVGDKDVVTGKDIAGLKTELEQKKINFDYQEYPGLNHEMDVWRPAYAAFVQKLFK
3. MSNLTGTDKSVILLMTIGEDRAAEVFKHLSQREVQTLSAAMANVTQISNKQLTDVLAEFEQEAEQFAALNINANDYLRSVLVKALGEERAASLLEDILETRDTASGIETLNFMEPQSAADLIRDEHPQIIATILVHLKRAQAADILALFDERLRHDVMLRIATFGGVQPAALAELTEVLNGLLDGQNLKRSKMGGVRTAAEIINLMKTQQEEAVITAVREFDGELAQKIIDEMFLFENLVDVDDRSIQRLLQEVDSESLLIALKGAEQPLREKFLRNMSQRAADILRDDLANRGPVRLSQVENEQKAILLIVRRLAETGEMVIGSGEDTYV [P0ABZ1]
4. MSEKPLTKTDYLMRLRRCQTIDTLERVIEKNKYELSDNELAVFYSAADHRLAELTMNKLYDKIPSSVWKFIR [P0ACE3]

Completion:
["6.29 h", "4.45 h", "4.83 h", "2.93 h"]

List reported total protein half-life in vivo for each of these sequences:
1. MSEIKDVIVQGLWKNNSALVQLLGLCPLLAVTSTATNALGLGLATTLVLTLTNLTISTLRHWTPAEIRIPIYVMIIASVVSAVQMLINAYAFGLYQSLGIFIPLIVTNCIVVGRAEAFAAKKGPALSALDGFSIGMGATCAMFVLGSLREIIGNGTLFDGADALLGSWAKVLRVEIFHTDSPFLLAMLPPGAFIGLGLMLAGKYLIDERMKKRRAEAAAERALPNGETGNV
2. MDVRQSIHSAHAKTLDTQGLRNEFLVEKVFVADEYTMVYSHIDRIIVGGIMPITKTVSVGGEVGKQLGVSYFLERRELGVINIGGAGTITVDGQCYEIGHRDALYVGKGAKEVVFASIDTGTPAKFYYNCAPAHTTYPTKKVTPDEVSPVTLGDNLTSNRRTINKYFVPDVLETCQLSMGLTELAPGNLWNTMPCHTHERRMEVYFYFNMDDDACVFHMMGQPQETRHIVMHNEQAVISPSWSIHSGVGTKAYTFIWGMVGENQVFDDMDHVAVKDLR

Completion:
1: 2.66 h; 2: 5.44 h
